biological target: ATP-dependent translocase ABCB1 (Homo sapiens, UniProt P08183); assay: TP_TRANSPORTER: increase uptake (Vinblastine: 0.01 uM) in Caco-2 cells; type: functional, cell-based
Sequence (P08183 whole entry): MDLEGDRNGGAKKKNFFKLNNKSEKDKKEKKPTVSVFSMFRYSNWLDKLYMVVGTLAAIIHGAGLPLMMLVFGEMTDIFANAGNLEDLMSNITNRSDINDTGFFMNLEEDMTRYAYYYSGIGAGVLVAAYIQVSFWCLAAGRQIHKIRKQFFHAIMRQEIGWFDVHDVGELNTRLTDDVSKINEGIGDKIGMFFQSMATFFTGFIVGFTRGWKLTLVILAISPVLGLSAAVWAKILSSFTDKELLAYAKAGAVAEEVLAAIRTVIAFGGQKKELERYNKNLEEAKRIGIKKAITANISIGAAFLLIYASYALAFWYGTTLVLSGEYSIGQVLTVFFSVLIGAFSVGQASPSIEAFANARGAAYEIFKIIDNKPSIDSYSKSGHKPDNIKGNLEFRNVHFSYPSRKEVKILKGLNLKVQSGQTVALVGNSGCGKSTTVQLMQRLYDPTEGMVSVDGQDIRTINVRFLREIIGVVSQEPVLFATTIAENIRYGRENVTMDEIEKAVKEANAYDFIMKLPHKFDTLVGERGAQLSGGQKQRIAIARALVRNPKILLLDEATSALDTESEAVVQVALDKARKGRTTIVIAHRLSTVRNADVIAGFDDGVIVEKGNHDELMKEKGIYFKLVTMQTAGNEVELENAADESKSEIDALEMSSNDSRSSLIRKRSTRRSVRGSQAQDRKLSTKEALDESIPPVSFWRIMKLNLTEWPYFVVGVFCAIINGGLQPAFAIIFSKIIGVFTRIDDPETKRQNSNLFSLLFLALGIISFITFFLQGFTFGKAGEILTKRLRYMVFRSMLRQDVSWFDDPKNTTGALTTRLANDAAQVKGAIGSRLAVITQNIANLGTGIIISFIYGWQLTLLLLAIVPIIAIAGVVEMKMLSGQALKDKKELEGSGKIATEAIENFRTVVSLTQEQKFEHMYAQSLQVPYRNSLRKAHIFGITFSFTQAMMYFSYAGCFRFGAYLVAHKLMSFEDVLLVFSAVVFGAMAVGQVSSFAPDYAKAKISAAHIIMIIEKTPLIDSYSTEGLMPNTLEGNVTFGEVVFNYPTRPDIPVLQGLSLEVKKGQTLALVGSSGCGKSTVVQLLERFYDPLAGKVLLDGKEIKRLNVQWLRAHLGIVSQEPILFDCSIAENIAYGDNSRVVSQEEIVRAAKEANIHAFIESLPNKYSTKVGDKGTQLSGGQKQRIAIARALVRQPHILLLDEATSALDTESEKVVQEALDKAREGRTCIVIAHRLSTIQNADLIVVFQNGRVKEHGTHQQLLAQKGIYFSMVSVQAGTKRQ
MEASURE: EC200 (µM)
The reply should be a number in µM, with the unit left off.

Supply EC200 value. Item: C/C(=C\COc1c2ccoc2cc2oc(=O)ccc12)CCC(OC(C)(C)C(O)CC/C(C)=C/COc1c2ccoc2cc2oc(=O)ccc12)C(C)(C)O (stereo not given) [FC726] 0.035

Identify the reported EC200 for the following entry. CC(C)=CCC/C(C)=C/COc1c2ccoc2cc2oc(=O)ccc12 [BERGAMOTTIN] 0.035

Note down EC200 recorded for COc1c2ccoc2cc2oc(=O)ccc12 [BERGAPTEN] 0.05

Return EC200 (reported value) for this compound: O=c1ccc2c(O)c3ccoc3cc2o1 [BERGAPTOL] 0.3

Annotate the compound C/C(=C\COc1c2ccoc2cc2oc(=O)ccc12)CC[C@@H](O)C(C)(C)O with its measured EC200. 0.04

// provenance: ChEMBL document CHEMBL2074502
